Molecular target: Toll-like receptor 4/MD-2 (Homo sapiens, UniProt O00206+Q9Y6Y9)
Sequence (O00206 whole entry): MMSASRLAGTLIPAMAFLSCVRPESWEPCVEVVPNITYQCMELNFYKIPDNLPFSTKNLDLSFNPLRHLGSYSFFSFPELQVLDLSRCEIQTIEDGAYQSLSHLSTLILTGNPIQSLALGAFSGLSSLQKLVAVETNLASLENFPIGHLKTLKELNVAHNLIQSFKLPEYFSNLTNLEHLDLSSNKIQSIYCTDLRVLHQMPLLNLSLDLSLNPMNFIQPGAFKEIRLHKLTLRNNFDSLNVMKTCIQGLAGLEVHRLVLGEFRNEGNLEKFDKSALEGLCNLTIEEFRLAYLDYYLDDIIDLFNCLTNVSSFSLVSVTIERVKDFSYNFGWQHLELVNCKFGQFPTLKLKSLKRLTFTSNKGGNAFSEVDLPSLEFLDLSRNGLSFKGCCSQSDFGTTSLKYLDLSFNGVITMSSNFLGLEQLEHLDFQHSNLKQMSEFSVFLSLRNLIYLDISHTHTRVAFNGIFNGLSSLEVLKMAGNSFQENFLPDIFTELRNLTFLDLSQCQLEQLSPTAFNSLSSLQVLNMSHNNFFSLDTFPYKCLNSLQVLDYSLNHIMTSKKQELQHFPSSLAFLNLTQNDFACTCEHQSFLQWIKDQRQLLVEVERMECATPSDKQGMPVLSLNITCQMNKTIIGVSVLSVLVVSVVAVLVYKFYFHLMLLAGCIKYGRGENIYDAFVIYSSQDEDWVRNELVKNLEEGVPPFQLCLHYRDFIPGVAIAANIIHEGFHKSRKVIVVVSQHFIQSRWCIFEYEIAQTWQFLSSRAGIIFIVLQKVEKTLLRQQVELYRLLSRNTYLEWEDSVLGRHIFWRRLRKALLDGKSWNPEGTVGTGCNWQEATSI
Sequence (Q9Y6Y9 whole entry): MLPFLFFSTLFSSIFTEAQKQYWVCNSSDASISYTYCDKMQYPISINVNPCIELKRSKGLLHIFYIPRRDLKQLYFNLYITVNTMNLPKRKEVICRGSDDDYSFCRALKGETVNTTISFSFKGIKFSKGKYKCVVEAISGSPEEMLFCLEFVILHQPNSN
Assay: Activation of TLR4/MD2 (unknown origin) expressed in HEK293 cells co-expressing CD14 assessed as induction of MyD88-dependent NF-kappaB activity after 24 hrs by NF-kappaB SEAP reporter gene assay
Format: cell-based
Conditions: hek293, 24 h

{"smiles.entry": "CCCCCCCCCCC[C@H](CC(=O)N[C@H]1[C@H](OC[C@@H](NC(=O)C[C@@H](CCCCCCCCCCC)OC(=O)CCCCCCCCC)C(=O)O)O[C@H](CO)[C@@H](OP(=O)(O)O)[C@@H]1OC(=O)C[C@@H](CCCCCCCCCCC)OC(=O)CCCCCCCCC)OCCCCCCCCCC", "Activity": "Non-toxic"}
{"smiles.entry": "CCCCCCCCCCC[C@H](CC(=O)N[C@H](CO[C@@H]1O[C@H](CO)[C@@H](OP(=O)(O)O)[C@H](OC(=O)C[C@@H](CCCCCCCCCCC)OC(=O)CCCCCCCCC)[C@H]1NC(=O)C[C@@H](CCCCCCCCCCC)OC(=O)CCCCCCCCC)C(=O)O)OCCCCCCCCCC", "Activity": "Non-toxic"}
{"smiles.entry": "CCCCCCCCCCC[C@H](CC(=O)N[C@H]1[C@H](OC[C@H](NC(=O)C[C@@H](CCCCCCCCCCC)OCCCCCCCCCC)C(=O)O)O[C@H](CO)[C@@H](OP(=O)(O)O)[C@@H]1OC(=O)C[C@@H](CCCCCCCCCCC)OCCCCCCCCCC)OCCCCCCCCCC", "Activity": "Toxic"}
{"smiles.entry": "CCCCCCCCCCC[C@H](CC(=O)N[C@H]1[C@H](OC[C@@H](NC(=O)C[C@@H](CCCCCCCCCCC)OCCCCCCCCCC)C(=O)O)O[C@H](CO)[C@@H](OP(=O)(O)O)[C@@H]1OC(=O)C[C@@H](CCCCCCCCCCC)OCCCCCCCCCC)OCCCCCCCCCC", "Activity": "Non-toxic"}
{"smiles.entry": "CCCCCCCCCCC[C@H](CC(=O)N[C@H](CO[C@@H]1O[C@H](CO)[C@@H](OP(=O)(O)O)[C@H](OC(=O)C[C@@H](CCCCCCCCCCC)OCCCCCCCCCC)[C@H]1NC(=O)C[C@@H](CCCCCCCCCCC)OC(=O)CCCCCCCCC)C(=O)O)OCCCCCCCCCC", "Activity": "Toxic"}
{"smiles.entry": "CCCCCCCCCCC[C@H](CC(=O)O[C@@H]1[C@@H](NC(=O)C[C@@H](CCCCCCCCCCC)OC(=O)CCCCCCCCC)[C@H](OC[C@@H](NC(=O)C[C@@H](CCCCCCCCCCC)OC(=O)CCCCCCCCC)C(=O)O)O[C@H](CO)[C@H]1OP(=O)(O)O)OCCCCCCCCCC", "Activity": "Toxic"}
{"smiles.entry": "CCCCCCCCCCC[C@H](CC(=O)N[C@H]1[C@H](OC[C@H](NC(=O)C[C@@H](CCCCCCCCCCC)OC(=O)CCCCCCCCC)C(=O)O)O[C@H](CO)[C@@H](OP(=O)(O)O)[C@@H]1OC(=O)C[C@@H](CCCCCCCCCCC)OC(=O)CCCCCCCCC)OC(=O)CCCCCCCCC", "Activity": "Toxic"}
{"smiles.entry": "CCCCCCCCCCCCCC(=O)O[C@H](CCCCCCCCCCC)CC(=O)N[C@H]1[C@H](OC[C@H](NC(=O)C[C@@H](CCCCCCCCCCC)OC(=O)CCCCCCCCCCCCC)C(=O)O)O[C@H](CO)[C@@H](OP(=O)(O)O)[C@@H]1OC(=O)C[C@@H](CCCCCCCCCCC)OC(=O)CCCCCCCCCCCCC", "Activity": "Non-toxic"}

The values you see were collected from ChEMBL document CHEMBL3352303.
